Where do the numbers come from? From ChEMBL document CHEMBL1155797.

Test system: Radical scavenging activity
assay-text: Antioxidant activity assessed as DPPH free radical scavenging activity at 1.8 mM after 10 mins
Type: functional
Below: a set of entries, each annotated with reported Activity.

molecule: COc1cc(/C=C/C(=O)O)ccc1O
system-name: Radical scavenging activity
Activity, %: 21

molecule: COc1cc2c(cc1OC)-c1c(OC)c(OC)c(CNC(=O)/C=C/c3ccc(O)cc3)c3c1C(C2)N(C)CC3 (stereo not given)
system-name: Radical scavenging activity
Activity, %: 2

molecule: COc1cc2c(cc1OC)-c1c(OC)c(OC)c(CNC(=O)/C=C/c3ccccc3O)c3c1C(C2)N(C)CC3 (stereo not given)
system-name: Radical scavenging activity
Activity, %: 2.3

molecule: COc1cc2c(cc1OC)-c1c(OC)c(OC)cc3c1[C@H](C2)N(C)CC3 [GLAUCINE]
system-name: Radical scavenging activity
Activity, %: 1.1

molecule: O=C(O)/C=C/c1ccccc1O
system-name: Radical scavenging activity
Activity, %: 2.2

molecule: COc1cc2c(cc1OC)-c1c(OC)c(OC)c(CN)c3c1C(C2)N(C)CC3 (stereo not given)
system-name: Radical scavenging activity
Activity, %: 2.2

molecule: O=C(O)/C=C/c1ccc(O)cc1
system-name: Radical scavenging activity
Activity, %: 3.7

molecule: COc1cc(/C=C/C(=O)O)cc(OC)c1O
system-name: Radical scavenging activity
Activity, %: 26.5

molecule: COc1cc(/C=C/C(=O)NCc2c3c4c(c(OC)c2OC)-c2cc(OC)c(OC)cc2CC4N(C)CC3)ccc1O (stereo not given)
system-name: Radical scavenging activity
Activity, %: 16.6

molecule: COc1cc2c(cc1OC)-c1c(OC)c(OC)c(CNC(=O)/C=C/c3cc(OC)c(O)c(OC)c3)c3c1C(C2)N(C)CC3 (stereo not given)
system-name: Radical scavenging activity
Activity, %: 14.4

* * *

System: Radical scavenging activity
assay-text: Antioxidant activity assessed as DPPH free radical scavenging activity at 1.8 mM after 20 mins
Format: functional
// returns false (0) unless Activity is strictly below 4%, in which case true (1)

compound: COc1cc(/C=C/C(=O)O)cc(OC)c1O
class-assignment: false (0)

compound: COc1cc2c(cc1OC)-c1c(OC)c(OC)c(CN)c3c1C(C2)N(C)CC3 (stereo not given)
class-assignment: true (1)

compound: O=C(O)/C=C/c1ccc(O)cc1
class-assignment: false (0)

compound: O=C(O)/C=C/c1ccccc1O
class-assignment: true (1)

compound: COc1cc(/C=C/C(=O)NCc2c3c4c(c(OC)c2OC)-c2cc(OC)c(OC)cc2CC4N(C)CC3)ccc1O (stereo not given)
class-assignment: false (0)

compound: COc1cc2c(cc1OC)-c1c(OC)c(OC)c(CNC(=O)/C=C/c3cc(OC)c(O)c(OC)c3)c3c1C(C2)N(C)CC3 (stereo not given)
class-assignment: false (0)

compound: COc1cc(/C=C/C(=O)O)ccc1O
class-assignment: false (0)

compound: COc1cc2c(cc1OC)-c1c(OC)c(OC)c(CNC(=O)/C=C/c3ccc(O)cc3)c3c1C(C2)N(C)CC3 (stereo not given)
class-assignment: true (1)

compound: COc1cc2c(cc1OC)-c1c(OC)c(OC)cc3c1[C@H](C2)N(C)CC3
class-assignment: true (1)

compound: COc1cc2c(cc1OC)-c1c(OC)c(OC)c(CNC(=O)/C=C/c3ccccc3O)c3c1C(C2)N(C)CC3 (stereo not given)
class-assignment: true (1)
